Ref: patent US6914045B2

# Test system: Enterococcus sp.
# ASSAY REMARKS: in vitro antibacterial evaluation, MIC by broth dilution
# Format: cell-based
# APPLIED CONDITIONS: strain GC 4557; broth dilution, 18 hours at 35° C.

| MOLECULE | TARGET OR TEST SYSTEM | MIC Enterococcus faecium (GC 4557) |
| --- | --- | --- |
| CC(c1ccccc1)C1NC(=O)CNC(=O)C(CO)NC(=O)C(C(O)C2CNC(=N)N2C2OC(CO)C(O)C(O)C2O)NC(=O)C(C(O)C2CNC(=N)N2)NC(=O)C(Cc2ccc3oc(C=C(c4ccccc4)c4ccccc4)nc3c2)NC1=O (stereo not drawn) [Example 39] | Enterococcus sp. | 8 µg/mL |
| CC(c1ccccc1)C1NC(=O)CNC(=O)C(CO)NC(=O)C(C(O)C2CNC(=N)N2C2OC(CO)C(O)C(O)C2O)NC(=O)C(C(O)C2CNC(=N)N2)NC(=O)C(Cc2ccc(OC3OC(CO)C(OC4OC5COC(c6ccc(-c7ccsc7)cc6)OC5C(O)C4O)C(O)C3O)cc2)NC1=O (stereo not drawn) [Example 164] | Enterococcus sp. | 4 µg/mL |
| CC(=O)Nc1cc(CC2NC(=O)C(C(C)c3ccccc3)NC(=O)CNC(=O)C(CO)NC(=O)C(C(O)C3CNC(=N)N3C3OC(CO)C(O)C(O)C3O)NC(=O)C(C(O)C3CNC(=N)N3)NC2=O)ccc1O (stereo not drawn) [Example 13] | Enterococcus sp. | 64 µg/mL |
| Cc1cc(C2OCC3OC(OC4C(CO)OC(Oc5ccc(CC6NC(=O)C(C(C)c7ccccc7)NC(=O)CNC(=O)C(CO)NC(=O)C(C(O)C7CNC(=N)N7C7OC(CO)C(O)C(O)C7O)NC(=O)C(C(O)C7CNC(=N)N7)NC6=O)cc5)C(O)C4O)C(O)C(O)C3O2)ccc1[N+](=O)[O-] (stereo not drawn) [Example 151] | Enterococcus sp. | 8 µg/mL |
| CC(c1ccccc1)C1NC(=O)CNC(=O)C(CO)NC(=O)C(C(O)C2CNC(=N)N2C2OC(CO)C(O)C(O)C2O)NC(=O)C(C(O)C2CNC(=N)N2)NC(=O)C(Cc2ccc3oc(-c4ccc(C(C)(C)C)cc4)nc3c2)NC1=O (stereo not drawn) [Example 32] | Enterococcus sp. | 2 µg/mL |
| CCOc1cc(C2OCC3OC(OC4C(CO)OC(Oc5ccc(CC6NC(=O)C(C(C)c7ccccc7)NC(=O)CNC(=O)C(CO)NC(=O)C(C(O)C7CNC(=N)N7C7OC(CO)C(O)C(O)C7O)NC(=O)C(C(O)C7CNC(=N)N7)NC6=O)cc5)C(O)C4O)C(O)C(O)C3O2)ccc1[N+](=O)[O-] (stereo not drawn) [Example 167] | Enterococcus sp. | 8 µg/mL |
